Source of measurements: ChEMBL document CHEMBL1159074

System: B16
procedure-text: Inhibition of alpha-MSH-induced melanin production in mouse B16 cells after 72 hrs
Format: functional, cell-based
test-parameters: B16, 72 h
pIC50: −log10 of the molar value.

# smiles-repr, pIC50
records = [
    ("O=C1NCCN1Cc1ccccc1", "< 5.00"),
    ("Cc1ccc(CN2CCNC2=O)cc1", "< 5.00"),
    ("O=C1NCCCN1Cc1ccc(Cl)cc1", "< 5.00"),
    ("COc1ccc(CN2CCCNC2=O)cc1", "< 5.00"),
    ("Cc1ccc(CN2CCCNC2=S)cc1", 5.29),
    ("S=C1NCCCN1CCCc1ccccc1", 5.68),
    ("CC(C)(C)c1ccc(CN2CCCNC2=O)cc1", "< 5.00"),
    ("COc1ccc(CN2CCNC2=O)cc1", "< 5.00"),
]

----------
Test system: B16
procedure-text: Inhibition of alpha-MSH-induced melanin production in mouse B16 cells after 72 hrs
Format: functional, cell-based
test-parameters: B16, 72 h
pIC50: −log10 of the molar value.
The compounds listed here are annotated with their pIC50.

# smiles-repr, pIC50
rows = [
    ("CC(C)(C)c1ccc(CN2CCCNC2=S)cc1", 6.10),
    ("S=C1NCCN1CCCc1ccccc1", 5.38),
    ("O=C1NCCCN1Cc1ccccc1", "< 5.00"),
    ("COc1ccc(CN2CCNC2=S)cc1", "< 5.00"),
    ("CCc1ccc(CN2CCCNC2=O)cc1", "< 5.00"),
    ("S=C1NCCN1CCc1ccccc1", "< 5.00"),
    ("Cc1ccc(CN2CCNC2=S)cc1", 5.32),
    ("COc1ccc(CN2CCCNC2=S)cc1", 5.21),
    ("S=C1NCCCN1Cc1ccccc1", "< 5.00"),
    ("S=C1NCCCN1CCc1ccccc1", 5.54),
    ("O=C1NCCN1CCc1ccccc1", "< 5.00"),
    ("O=C1NCCN1CCCc1ccccc1", "< 5.00"),
    ("S=C1NCCCN1Cc1ccc(Cl)cc1", 5.62),
    ("O=C1NCCN1Cc1ccc(Cl)cc1", "< 5.00"),
    ("Cc1ccc(CN2CCCNC2=O)cc1", "< 5.00"),
    ("S=C1NCCN1Cc1ccccc1", "< 5.00"),
]

----------
System: B16
procedure-text: Inhibition of alpha-MSH-induced melanin production in mouse B16 cells after 72 hrs
Format: functional, cell-based
test-parameters: B16, 72 h
pIC50: −log10 of the molar value.
Entries and their measured pIC50 follow.

# smiles-repr, result-comparator, pIC50
measured = [
    ("O=C1NCCCN1CCCc1ccccc1", "<", 5.00),
    ("O=C1NCCCN1CCc1ccccc1", "<", 5.00),
    ("S=C1NCCN1Cc1ccc(Cl)cc1", "=", 5.37),
    ("CCc1ccc(CN2CCCNC2=S)cc1", "=", 5.89),
]
